# study-system: Cytochrome P450 1A2 (Homo sapiens, UniProt P05177)
# Sequence (P05177 whole entry): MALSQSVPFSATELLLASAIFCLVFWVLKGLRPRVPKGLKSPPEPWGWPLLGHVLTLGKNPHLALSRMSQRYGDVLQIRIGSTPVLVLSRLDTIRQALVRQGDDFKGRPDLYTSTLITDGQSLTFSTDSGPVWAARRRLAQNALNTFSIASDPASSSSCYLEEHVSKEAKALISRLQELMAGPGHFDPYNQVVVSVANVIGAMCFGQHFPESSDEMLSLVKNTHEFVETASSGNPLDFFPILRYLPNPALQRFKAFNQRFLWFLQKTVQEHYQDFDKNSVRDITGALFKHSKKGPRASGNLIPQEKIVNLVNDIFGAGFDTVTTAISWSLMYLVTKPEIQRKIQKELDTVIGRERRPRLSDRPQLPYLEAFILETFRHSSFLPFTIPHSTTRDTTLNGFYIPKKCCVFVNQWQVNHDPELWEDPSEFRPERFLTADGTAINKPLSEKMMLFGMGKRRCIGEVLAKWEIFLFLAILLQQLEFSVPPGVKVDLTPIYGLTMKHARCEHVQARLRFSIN
measurement-kind: IC50

Quote IC50 with test system Cytochrome P450 1A2 (Homo sapiens, UniProt P05177) for `Cc1cccc(Cc2nc3cc(O[C@H]4CC[C@@H](C(=O)O)CC4)ccc3n2C)c1`
> 20 µM

###

# study-system: UniProt:P33121
# Sequence (P33121 whole entry): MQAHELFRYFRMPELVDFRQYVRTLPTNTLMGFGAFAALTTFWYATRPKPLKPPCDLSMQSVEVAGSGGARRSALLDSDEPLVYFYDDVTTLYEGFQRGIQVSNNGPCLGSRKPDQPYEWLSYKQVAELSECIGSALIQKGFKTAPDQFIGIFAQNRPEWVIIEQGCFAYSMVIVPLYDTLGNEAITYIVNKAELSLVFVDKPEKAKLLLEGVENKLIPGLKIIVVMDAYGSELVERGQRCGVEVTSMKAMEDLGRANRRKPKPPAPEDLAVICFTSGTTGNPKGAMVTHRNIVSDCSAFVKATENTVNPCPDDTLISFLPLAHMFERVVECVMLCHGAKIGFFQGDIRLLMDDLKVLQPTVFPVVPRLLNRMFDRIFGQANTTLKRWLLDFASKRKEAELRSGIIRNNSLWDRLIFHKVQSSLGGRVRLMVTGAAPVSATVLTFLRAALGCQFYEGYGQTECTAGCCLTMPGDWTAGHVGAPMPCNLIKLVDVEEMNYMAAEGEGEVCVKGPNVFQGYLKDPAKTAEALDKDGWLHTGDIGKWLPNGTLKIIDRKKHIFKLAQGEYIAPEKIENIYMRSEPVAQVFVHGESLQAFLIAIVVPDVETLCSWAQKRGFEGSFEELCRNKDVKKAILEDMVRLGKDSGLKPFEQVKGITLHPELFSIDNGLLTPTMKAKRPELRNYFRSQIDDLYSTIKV
# method-summary: Inhibition of recombinant human ACSL1 assessed as reduction in […] prodution incubated for 90 mins in presence of Coenzyme A, ATP and MgCl2 by MALDI-TOF MS analysis
Threshold check on IC50: strictly below 600 nM is Y; on or above 600 nM is N.

# example entries with known answers
structure-notation: Cc1cccc(Cc2nc3ccc(O[C@H]4CC[C@@H](C(=O)O)CC4)cc3n2C)c1
category-label: N

structure-notation: Cc1cccc(Cc2nc3cc(O[C@H]4CC[C@@H](C(=O)O)CC4)ccc3n2C(C)C)c1
category-label: N

structure-notation: Cc1cccc(C(=O)c2nc3cc(O[C@H]4CC[C@@H](C(=O)O)CC4)ccc3n2C)c1
category-label: N

structure-notation: Cc1cccc(Cc2nc3cc(O[C@H]4CC[C@@H](C(N)=O)CC4)ccc3n2C)c1
category-label: N

structure-notation: Cc1cccc(Cc2nc3cc(O[C@H]4CC[C@@H](c5noc(=O)[nH]5)CC4)ccc3n2C)c1
category-label: Y

structure-notation: Cc1cccc(Cc2nc3cc(O[C@H]4CC[C@@](F)(c5nnn[nH]5)CC4)ccc3n2C)c1
category-label: Y

structure-notation: Cc1cccc(Cc2nc3nc(O[C@H]4CC[C@@H](C(=O)O)CC4)ccc3n2C)c1
category-label: Y

structure-notation: Cc1cccc(Oc2nc3cc(O[C@H]4CC[C@@H](C(=O)O)CC4)ccc3n2C)c1
category-label: N

Then there is this molecule:
IC50 under 600 nM? Item: `Cc1cccc(Cc2nc3cc(O[C@H]4CC[C@@H](C(=O)O)CC4)cc(Cl)c3n2C)c1`
Y
